Target: human recombinant GSK3β (Homo sapiens)
Construct: 6His (N)
Sequence (P49841 whole entry): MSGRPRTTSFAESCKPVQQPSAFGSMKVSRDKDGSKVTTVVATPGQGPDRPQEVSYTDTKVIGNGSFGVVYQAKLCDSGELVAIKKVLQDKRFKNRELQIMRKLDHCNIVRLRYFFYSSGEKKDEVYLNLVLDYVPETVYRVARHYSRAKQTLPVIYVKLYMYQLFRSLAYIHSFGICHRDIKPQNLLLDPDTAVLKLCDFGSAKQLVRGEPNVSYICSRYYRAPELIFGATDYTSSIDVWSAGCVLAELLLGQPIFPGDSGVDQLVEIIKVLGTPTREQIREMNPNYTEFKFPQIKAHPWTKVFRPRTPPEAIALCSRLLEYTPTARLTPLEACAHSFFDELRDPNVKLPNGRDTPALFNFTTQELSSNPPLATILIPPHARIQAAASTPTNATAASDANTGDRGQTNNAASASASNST
Assay: GSK-3β assay (Z'-LYTE FRET enzymatic activity)
Settings: 2 nM enzyme (N-terminal 6His-tagged, H350L mutation), 12.5 µM ATP, 2 µM Ser/Thr 9 peptide, 60 min at room temperature, 1% DMSO; read-out: GSK3β inhibition average EC50
Test Readout: pEC50
Give bare numbers, as −log10 of the molar value.

> print(dat)
                                   compound  measured.number
1  CCCCCSSC(=O)N(Cc1ccccc1)C(=O)NCc1ccccc1 [Compound 10]             6.53
2  CC(C)C(C)SSC(=O)N(Cc1ccccc1)C(=O)Nc1ccc(Oc2ccccc2)cc1 (centres unmarked) [Compound 9]             7.46
3  CCCCSSC(=O)N(Cc1ccccc1)C(=O)Nc1cccc2ccccc12 [Compound 2]             7.18

Provide pEC50 for all items below, preserving their order.
1. CC(C)C(C)SSC(=O)N(Cc1ccccc1)C(=O)Nc1cccc2ccccc12 (centres unmarked) [Compound 3]
2. O=C(Nc1cccc2ccccc12)N(Cc1ccccc1)C(=O)SSC1CCCC1 [Compound 5]

**A:**
[6.79, 6.90]
